pKi: −log10 of the molar value. Square brackets hold non-standard residues; d marks the D form. Peptide text beside a SMILES is read from it. * marks the point of attachment. Cbz = O=C(OCc1ccccc1)*; azaGly = NNC(=O)O
Data export: pKi values recorded with Papain (Carica papaya).
Sequence (P00784 134-345): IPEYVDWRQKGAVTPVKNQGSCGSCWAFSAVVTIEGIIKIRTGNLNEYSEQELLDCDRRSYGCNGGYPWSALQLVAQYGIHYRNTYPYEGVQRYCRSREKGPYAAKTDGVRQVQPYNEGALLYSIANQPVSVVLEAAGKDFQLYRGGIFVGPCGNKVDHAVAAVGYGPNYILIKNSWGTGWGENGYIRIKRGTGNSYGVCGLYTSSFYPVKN

Compound	pKi
CC(C)CC(NC(=O)C(NC(=O)C1OC1C(=O)c1ccccc1)C(C)C)C(=O)NCCCCNC(=N)N (single isomer, unassigned) [A-47]	7.80
CCC(C)C(NC(=O)NNC(=O)C(CCCNC(=N)N)NC(=O)C(CC(C)C)NC(=O)C(CCCNC(=N)N)NC(=O)OCc1ccccc1)C(=O)NC(C(=O)OC)C(C)C (stereo not drawn) [Z-RLR, Z-Arg-Leu-Arg-Agly-Ile-Val-OMe] (Cbz-RLR[azaGly]IV-OMe; configuration not given here)	8.05
CC(C)CC(NC(=O)C(NC(=O)C1OC1C(=O)c1ccccc1)C(C)C)C(=O)NCCCCNC(=N)N (single isomer, unassigned) [A-50]	7.17
CCC(C)C(NC(=O)/C=C/S(=O)(=O)Cc1ccccc1)C(=O)N1CCCC1C(=O)O (centres unmarked)	7.64
CC(C)C[C@H](NC(=O)[C@@H](NC(=O)[C@H](Br)Cc1ccccc1)C(C)C)C(=O)NCCCCNC(=N)N	6.47

---

Recorded Ki, one value per entry.
Target protein (sequence): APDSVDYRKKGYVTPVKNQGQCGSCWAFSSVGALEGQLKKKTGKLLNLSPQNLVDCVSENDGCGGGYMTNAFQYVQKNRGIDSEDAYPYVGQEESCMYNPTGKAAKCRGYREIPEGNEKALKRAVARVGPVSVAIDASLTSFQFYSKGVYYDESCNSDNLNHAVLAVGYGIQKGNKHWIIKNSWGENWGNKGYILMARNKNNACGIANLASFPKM
Square brackets hold non-standard residues; d marks the D form. Peptide text beside a SMILES is read from it. * marks the point of attachment. Agmatine = N=C(N)NCCCCN*; Cbz = O=C(OCc1ccccc1)*; azaGly = NNC(=O)O; BrAc = O=C(CBr)*; ClAc = O=C(CCl)*
Recorded Metric: Ki (nM)

Molecule	Recorded Metric	Value Units	Readout Value
CCC(C)C(NC(=O)NNC(=O)C(CCCNC(=N)N)NC(=O)C(CC(C)C)NC(=O)C(CCCNC(=N)N)NC(=O)OCc1ccccc1)C(=O)NC(C(=O)OC)C(C)C (stereo not drawn) [Z-RLR, Z-Arg-Leu-Arg-Agly-Ile-Val-OMe] (Cbz-RLR[azaGly]IV-OMe; configuration not given here)	Ki	nM	1
CC(C)CC(NC(=O)C(NC(=O)C1OC1C(=O)c1ccccc1)C(C)C)C(=O)NCCCCNC(=N)N (single isomer, unassigned) [A-47]	Ki	nM	99
CCC(C)C(NC(=O)/C=C/S(=O)(=O)Cc1ccccc1)C(=O)N1CCCC1C(=O)O (stereo not drawn) [M-1, Bzsa-Ile-Pro-OH]	Ki	nM	160
CC(C)CC(NC(=O)C(NC(=O)CCl)C(C)C)C(=O)NCCCCNC(=N)N (stereo not drawn) [A-11, ClAc—Val-Leu-Agm] (ClAc-Val-Leu-Agmatine; configuration not given here)	Ki	nM	14
CC(C)CC(NC(=O)C(NC(=O)/C=C/S(=O)(=O)Cc1ccccc1)C(C)C)C(=O)NCCCCNC(=N)N (stereo not drawn) [A-25, Bzsa-Val-Leu-Agm]	Ki	nM	42.2
CC(C)CC(NC(=O)C(NC(=O)CBr)C(C)C)C(=O)NCCCCNC(=N)N (stereo not drawn) [A-12, BrAc—Val-Leu-Agm] (BrAc-Val-Leu-Agmatine; configuration not given here)	Ki	nM	13
